target: Bcl-xL, Q07817; experiment: peptide SPOT array, c-Myc-tagged receptor at 1 uM or 100 nM, anti-c-Myc-Cy3
Sequence (Q07817 1-209): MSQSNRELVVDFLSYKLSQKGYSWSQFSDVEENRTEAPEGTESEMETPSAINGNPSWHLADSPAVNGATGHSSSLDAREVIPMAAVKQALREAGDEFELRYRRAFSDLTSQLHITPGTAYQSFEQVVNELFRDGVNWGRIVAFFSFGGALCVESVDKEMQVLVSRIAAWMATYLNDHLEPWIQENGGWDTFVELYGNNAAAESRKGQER
VALUE_TYPE: SPOT signal as a fraction of Bim BH3's signal on the same receptor and array
Just the number, please, no unit after it.

BINDER: CGDLASLSIDIWTLLEEVDGRRLVVA [BIRC6]
VALUE_OBSERVED: 0.03

BINDER: AELRLFLAQRLRWLCDSCPASRATCV [NBEAL2]
VALUE_OBSERVED: 1.24

BINDER: GVAASDFIRSLDHCGDLALEGVFSHK [NLRC4]
VALUE_OBSERVED: 0.02

BINDER: MRSQLGKATALAIMLDKLWWADQVSE [LRP1]
VALUE_OBSERVED: 0.12

BINDER: ISDVQVFGYSDRFNADLLRSAVQQVN [DBC1]
VALUE_OBSERVED: 0.02

BINDER: WTLFVYTKGNDRMIGDDLVNSYHLLL [RBL1]
VALUE_OBSERVED: 0.08

Here is the next item to consider.
[Q] What value of SPOT signal as a fraction of Bim BH3's signal on the same receptor and array has been recorded for this entry: CALIAGATLHVAWLGDSQVILVQQGQ [PPM1F]
[A] 0.02

Source: paper PMC4072508
